- system under test: USP25 (USP25-His6, Boston Biochem E-546) (Homo sapiens)
- Construct: His6; purchased Boston Biochem E-546
- Sequence (Q9UHP3 1-1055): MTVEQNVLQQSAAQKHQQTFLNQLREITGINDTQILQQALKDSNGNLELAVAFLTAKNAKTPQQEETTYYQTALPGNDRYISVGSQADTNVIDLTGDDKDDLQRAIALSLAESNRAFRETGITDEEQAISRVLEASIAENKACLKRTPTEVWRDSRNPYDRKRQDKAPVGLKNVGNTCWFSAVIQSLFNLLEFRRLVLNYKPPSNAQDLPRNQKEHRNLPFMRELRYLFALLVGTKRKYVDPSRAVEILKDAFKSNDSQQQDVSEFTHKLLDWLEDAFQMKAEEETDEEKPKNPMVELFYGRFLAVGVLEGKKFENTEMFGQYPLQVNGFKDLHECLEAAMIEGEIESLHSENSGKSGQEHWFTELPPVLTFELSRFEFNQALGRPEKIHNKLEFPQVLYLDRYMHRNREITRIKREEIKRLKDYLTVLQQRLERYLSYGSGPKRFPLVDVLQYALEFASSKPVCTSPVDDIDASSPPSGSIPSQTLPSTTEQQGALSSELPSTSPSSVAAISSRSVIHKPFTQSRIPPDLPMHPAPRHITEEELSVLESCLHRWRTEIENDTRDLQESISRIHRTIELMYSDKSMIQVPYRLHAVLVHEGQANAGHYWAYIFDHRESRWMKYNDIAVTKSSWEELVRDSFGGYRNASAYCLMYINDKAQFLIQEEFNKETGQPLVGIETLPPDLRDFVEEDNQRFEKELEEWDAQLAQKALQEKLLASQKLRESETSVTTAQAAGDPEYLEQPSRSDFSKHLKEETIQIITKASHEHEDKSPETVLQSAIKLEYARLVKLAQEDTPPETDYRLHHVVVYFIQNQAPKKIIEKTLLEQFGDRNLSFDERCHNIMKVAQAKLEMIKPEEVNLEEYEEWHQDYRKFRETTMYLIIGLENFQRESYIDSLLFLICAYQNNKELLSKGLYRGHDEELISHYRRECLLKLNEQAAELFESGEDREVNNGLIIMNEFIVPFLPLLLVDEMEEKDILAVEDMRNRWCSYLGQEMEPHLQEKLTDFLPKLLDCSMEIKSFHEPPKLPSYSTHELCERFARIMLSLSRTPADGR
- method description: Ubiquitin-Rhodamine 110 Assay for USP25 Activity, Example A-2
- Format: biochemical
- test context: Ub-Rh110 assay, Example A-2; read-out: USP25 A-2 IC50 range
Kindly state IC50 for each of the entries shown.

Query: What measured IC50 is associated with Cc1nc2sc(C(=O)N[C@@H]3COc4cc(N5CCNCC5)ccc4C3)c(N)c2cc1F (single isomer, unassigned) on USP25 (USP25-His6, Boston Biochem E-546) (Homo sapiens)?
Response: > 2000 nM

Query: What measured IC50 is associated with "Cc1ccc2c(N)c(C(=O)N[C@H]3COc4c(ccc(N5CCNCC5)c4F)C3)sc2n1" on USP25 (USP25-His6, Boston Biochem E-546) (Homo sapiens)?
Response: 50 to 200 nM

Query: What measured IC50 is associated with Cc1ccc2c(N)c(C(=O)N[C@H]3COc4cc(N5CCC[C@](N)(C(F)(F)F)C5)ccc4C3)sc2n1 (single isomer, unassigned) on USP25 (USP25-His6, Boston Biochem E-546) (Homo sapiens)?
Response: 200 to 2000 nM

Query: What measured IC50 is associated with Cc1ccc2c(N)c(C(=O)N[C@H]3COc4cc(N5CCN[C@@H](C)[C@H]5C)ccc4C3)sc2n1 (single isomer, unassigned) on USP25 (USP25-His6, Boston Biochem E-546) (Homo sapiens)?
Response: 1 to 50 nM

Query: What measured IC50 is associated with "Cc1cc(C)c2c(N)c(C(=O)N[C@H]3COc4cc(N5CCNCC5)c(C#N)c(F)c4C3)sc2n1" on USP25 (USP25-His6, Boston Biochem E-546) (Homo sapiens)?
Response: 1 to 50 nM

Query: What measured IC50 is associated with "Cc1nc2sc(C(=O)N[C@H]3COc4cc(N5CC6CCC(C5)N6)ccc4C3)c(N)c2s1" on USP25 (USP25-His6, Boston Biochem E-546) (Homo sapiens)?
Response: 200 to 2000 nM

Query: What measured IC50 is associated with "Nc1c(C(=O)N[C@H]2COc3cc(N4CC5CC(C4)N5)ccc3C2)sc2nc(F)ccc12" on USP25 (USP25-His6, Boston Biochem E-546) (Homo sapiens)?
Response: 200 to 2000 nM

Query: What measured IC50 is associated with CO[C@H]1CN(c2ccc3c(c2)OC[C@H](NC(=O)c2sc4nc(C)ccc4c2N)C3)C[C@@H]1N (single isomer, unassigned) on USP25 (USP25-His6, Boston Biochem E-546) (Homo sapiens)?
Response: 200 to 2000 nM

Query: What measured IC50 is associated with "Cc1ccc2c(N)c(C(=O)N[C@@H]3COc4c(ccc(N5CCNCC5)c4F)C3)sc2n1" on USP25 (USP25-His6, Boston Biochem E-546) (Homo sapiens)?
Response: > 2000 nM

Query: What measured IC50 is associated with "Cc1cnc2c(N)c(C(=O)N[C@H]3COc4cc(N5CC6CC(C5)N6)ccc4C3)sc2n1" on USP25 (USP25-His6, Boston Biochem E-546) (Homo sapiens)?
Response: 50 to 200 nM

----------
- system under test: USP25 (USP25-His6, Boston Biochem E-546) (Homo sapiens, UniProt Q9UHP3)
- Construct: His6; purchased Boston Biochem E-546
- method description: Ubiquitin-Rhodamine 110 Assay for USP25 Activity, Example A-2
- Type: biochemical
- test context: Ubiquitin-Rhodamine 110 assay, Example A-2; read-out: USP25 A-2 IC50 range
measured quantity: IC50

Query: What value of measured IC50 is listed for "Cc1cnc2c(N)c(C(=O)N[C@H]3CCc4nc(N5CC6CCC(C5)N6)ccc4C3)sc2n1" ?
Response: 0.2 to 2 µM

Query: What value of measured IC50 is listed for "N#Cc1c(N2CC3CCC(C2)N3)cc(F)c2c1OC[C@H](NC(=O)c1cnc3c(c1)[C@H]1C[C@H]1CN3)C2" ?
Response: > 2 µM

Query: What value of measured IC50 is listed for "Cc1ccc2c(N)c(C(=O)N[C@H]3COc4cc([C@H]5C[C@H](N)C5)ccc4C3)sc2n1" ?
Response: 0.2 to 2 µM

Query: What value of measured IC50 is listed for "Cc1ccc2c(N)c(C(=O)N[C@H]3COc4c(ccc(N5CC6CNCC(C5)O6)c4F)C3)sc2n1" ?
Response: 0.001 to 0.05 µM

Query: What value of measured IC50 is listed for Cc1ccc2c(N)c(C(=O)N[C@@H]3CCc4cc(N5CCN[C@H](CO)C5)ccc4C3)sc2n1 (single isomer, unassigned) ?
Response: 0.2 to 2 µM

Query: What value of measured IC50 is listed for "Cc1cnc2c(N)c(C(=O)N[C@@H]3CCc4cc(N5CC6CNCC(C5)O6)ccc4C3)sc2n1" ?
Response: > 2 µM

Query: What value of measured IC50 is listed for Cc1ccc2c(N)c(C(=O)N[C@H]3COc4cc(N5C[C@H]6CCNC[C@H]65)ccc4C3)sc2n1 (single isomer, unassigned) ?
Response: 0.2 to 2 µM

----------
- system under test: USP28 (His-tagged USP28-FL-mammalian) (Homo sapiens, UniProt Q96RU2)
- Construct: Expression of USP28 (1-1077)-TEV-6*His (pTT5 vector); made in house; host or cells: Expi293f cells (pTT5 vector)
- Sequence (Q96RU2 whole entry): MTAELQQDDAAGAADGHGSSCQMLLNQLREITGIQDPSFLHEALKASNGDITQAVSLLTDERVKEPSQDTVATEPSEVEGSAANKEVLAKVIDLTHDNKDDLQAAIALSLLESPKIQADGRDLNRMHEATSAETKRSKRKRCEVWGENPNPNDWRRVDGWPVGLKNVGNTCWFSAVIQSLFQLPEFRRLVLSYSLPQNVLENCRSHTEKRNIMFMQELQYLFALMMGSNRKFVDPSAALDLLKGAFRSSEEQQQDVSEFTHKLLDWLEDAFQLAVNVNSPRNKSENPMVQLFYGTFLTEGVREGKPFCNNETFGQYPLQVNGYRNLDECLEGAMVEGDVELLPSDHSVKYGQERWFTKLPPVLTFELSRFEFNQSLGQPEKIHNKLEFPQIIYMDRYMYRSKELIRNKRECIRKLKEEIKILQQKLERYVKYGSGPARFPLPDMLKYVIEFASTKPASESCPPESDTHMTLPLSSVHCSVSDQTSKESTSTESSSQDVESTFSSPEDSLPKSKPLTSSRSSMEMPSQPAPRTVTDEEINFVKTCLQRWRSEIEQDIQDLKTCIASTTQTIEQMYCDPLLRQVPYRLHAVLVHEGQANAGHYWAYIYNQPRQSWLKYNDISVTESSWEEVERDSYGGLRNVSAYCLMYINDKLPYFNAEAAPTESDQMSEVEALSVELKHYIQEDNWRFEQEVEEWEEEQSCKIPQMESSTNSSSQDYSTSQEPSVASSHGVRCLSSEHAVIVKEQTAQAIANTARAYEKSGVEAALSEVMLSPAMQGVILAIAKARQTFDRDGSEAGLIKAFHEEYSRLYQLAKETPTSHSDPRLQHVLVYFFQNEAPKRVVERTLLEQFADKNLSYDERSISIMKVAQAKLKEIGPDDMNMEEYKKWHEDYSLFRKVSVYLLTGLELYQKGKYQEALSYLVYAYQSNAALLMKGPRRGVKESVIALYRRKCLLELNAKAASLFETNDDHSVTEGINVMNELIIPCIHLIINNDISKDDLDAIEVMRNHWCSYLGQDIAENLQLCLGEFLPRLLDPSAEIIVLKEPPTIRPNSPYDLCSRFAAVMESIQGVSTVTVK
- method description: Ubiquitin-Rhodamine 110 Assay for USP28 Activity, Example A-1(a)
- Type: biochemical
- test context: Ubiquitin-Rhodamine 110 assay, Example A-1(a); read-out: USP28 A-1(a) IC50 range
measured quantity: IC50

Query: What value of measured IC50 is listed for "Cc1ccc2c(N)c(C(=O)N[C@H]3CCc4nc(N5C[C@@H](N)[C@@H](OC(C)C)C5)ccc4C3)sc2n1" ?
Response: 200 to 2000 nM

Query: What value of measured IC50 is listed for "CO[C@H]1CN(c2ccc3c(c2)CC[C@H](NC(=O)c2sc4nc(C)cnc4c2N)C3)C[C@@H]1N" ?
Response: 50 to 200 nM

Query: What value of measured IC50 is listed for CO[C@H]1CN(c2ccc3c(c2)CC[C@H](NC(=O)c2cnc4c(c2)C2CC2CN4)C3)C[C@@H]1N (stereo partly shown) ?
Response: 200 to 2000 nM

Query: What value of measured IC50 is listed for "CO[C@H]1CN(c2cc(F)c3c(c2F)OC[C@H](NC(=O)c2sc4nc(C)ccc4c2N)C3)C[C@@H]1N" ?
Response: 1 to 50 nM

Query: What value of measured IC50 is listed for "Cc1ccc2c(N)c(C(=O)N[C@H]3COc4c(C#N)c(N5CC6CNCC(C5)O6)cc(F)c4C3)sc2n1" ?
Response: 1 to 50 nM

Query: What value of measured IC50 is listed for O=C(N[C@@H]1CCc2c(c(F)cc(N3CC4CCC(C3)N4)c2C(F)F)C1)c1cnc2c(c1)[C@@H]1C[C@@H]1CN2 (single isomer, unassigned) ?
Response: > 2000 nM

Query: What value of measured IC50 is listed for "Cc1ccc2c(N)c(C(=O)N[C@H]3COc4cc(N5C[C@@H]6CCN[C@@H]6C5)ccc4C3)sc2n1" ?
Response: 1 to 50 nM
